# Test system: HepG-2 cells (hepatocellular carcinoma)
# experiment: MTT anti-proliferative assay, HepG-2
# Assay type: cell-based, human
# condition.parameters: MTT, mean ± SD of three separate experiments; read-out: In vitro Cytotoxicity IC50 HepG-2
# Method: Anti-proliferative activities of the target compounds were assessed via the standard MTT method[38–40] against three cancer cell lines, namely, hepatocellular carcinoma (HepG-2), colorectal carcinoma (HCT-116), and human breast adenocarcinoma (MCF-7). […] Then, cells were dropped in 96-well plates at a density of 3-8 × 10^3 cells/well and incubated for two days in a 5% CO2 incubator at 37 °C. […] The relative cell viability in percentage was calculated. […]
Could you please report measured pIC50 for the items listed next?
One number for each entry, as −log10 of the molar value.

CCCc1nnc2c3ccccc3c3nnc(SCC(=O)Nc4ccc([N+](=O)[O-])cc4)n3n12 [Compound 14b] | 4.87

Consider the compound shown here: "CCCc1nnc2c3ccccc3c(NNC(=S)NC3CCCCC3)nn12" What is its recorded pIC50? 4.96

----------
Assay read-out pIC50; system under study: human Topo II (Homo sapiens).
Sequence (P11388 whole entry): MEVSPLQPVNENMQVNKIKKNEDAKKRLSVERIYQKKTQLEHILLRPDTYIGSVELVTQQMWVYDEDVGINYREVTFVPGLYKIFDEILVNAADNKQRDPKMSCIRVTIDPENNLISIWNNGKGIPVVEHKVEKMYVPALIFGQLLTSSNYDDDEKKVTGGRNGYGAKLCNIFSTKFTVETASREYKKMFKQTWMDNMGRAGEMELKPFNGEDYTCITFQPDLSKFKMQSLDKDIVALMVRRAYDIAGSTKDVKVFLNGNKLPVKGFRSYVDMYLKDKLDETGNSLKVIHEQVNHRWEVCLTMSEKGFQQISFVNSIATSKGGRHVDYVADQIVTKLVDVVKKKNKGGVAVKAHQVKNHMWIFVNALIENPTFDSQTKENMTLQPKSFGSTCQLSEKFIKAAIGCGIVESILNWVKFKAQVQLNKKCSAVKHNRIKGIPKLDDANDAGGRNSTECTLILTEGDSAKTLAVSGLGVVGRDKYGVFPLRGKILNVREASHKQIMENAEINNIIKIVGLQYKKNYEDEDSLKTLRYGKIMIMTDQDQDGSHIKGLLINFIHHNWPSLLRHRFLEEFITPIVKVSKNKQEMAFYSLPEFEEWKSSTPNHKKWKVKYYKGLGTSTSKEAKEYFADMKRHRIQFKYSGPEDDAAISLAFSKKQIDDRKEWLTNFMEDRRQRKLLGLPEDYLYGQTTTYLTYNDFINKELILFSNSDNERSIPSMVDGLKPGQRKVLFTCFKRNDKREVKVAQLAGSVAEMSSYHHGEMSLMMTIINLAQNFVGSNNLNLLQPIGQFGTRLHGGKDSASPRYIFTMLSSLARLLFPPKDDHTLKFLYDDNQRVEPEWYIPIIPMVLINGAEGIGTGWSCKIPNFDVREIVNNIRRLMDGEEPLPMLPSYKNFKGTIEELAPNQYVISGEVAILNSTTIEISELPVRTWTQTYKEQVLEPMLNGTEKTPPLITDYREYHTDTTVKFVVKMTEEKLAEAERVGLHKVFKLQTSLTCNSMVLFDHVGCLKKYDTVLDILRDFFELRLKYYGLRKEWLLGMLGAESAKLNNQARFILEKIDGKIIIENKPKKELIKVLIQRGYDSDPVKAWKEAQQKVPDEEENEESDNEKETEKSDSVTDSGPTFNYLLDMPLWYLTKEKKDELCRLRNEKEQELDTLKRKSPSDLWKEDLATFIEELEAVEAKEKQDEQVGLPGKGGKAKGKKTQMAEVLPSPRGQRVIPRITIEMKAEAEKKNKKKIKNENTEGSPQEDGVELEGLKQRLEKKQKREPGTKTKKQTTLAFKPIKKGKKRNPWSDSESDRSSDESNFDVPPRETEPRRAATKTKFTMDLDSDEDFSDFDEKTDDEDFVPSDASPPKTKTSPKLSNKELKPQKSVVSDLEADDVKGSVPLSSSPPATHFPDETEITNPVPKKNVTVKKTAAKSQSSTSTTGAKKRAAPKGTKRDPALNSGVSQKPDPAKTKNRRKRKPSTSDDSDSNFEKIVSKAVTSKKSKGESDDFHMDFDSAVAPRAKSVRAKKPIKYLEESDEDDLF
Answers are plain numbers, as −log10 of the molar value.

Below, 2 compounds whose answers are already recorded.
CCCc1nnc2c3ccccc3c(NNC(=S)NCC)nn12 | 4.65
CCCc1nnc2c3ccccc3c(NN=Cc3ccc(Cl)cc3)nn12 | 4.86

I need pIC50 for every entry listed below, if you could help.
1. CCCc1nnc2c3ccccc3c(NNC(=S)NC3CCCCC3)nn12
2. CCCc1nnc2c3ccccc3c3nnc(SCC(=O)Nc4ccc([N+](=O)[O-])cc4)n3n12 [Compound 14b]

1. 5.05
2. 4.86

I have this compound here, CCCc1nnc2c3ccccc3c3nnc(SCC(=O)Nc4ccc(C(=O)O)cc4)n3n12 [Compound 14a] , and I need its recorded pIC50. 5.12

----------
# Test system: HCT-116 cells (colorectal carcinoma)
# experiment: MTT anti-proliferative assay, HCT-116
# Assay type: cell-based, human
# condition.parameters: MTT, mean ± SD of three separate experiments; read-out: In vitro Cytotoxicity IC50 HCT-116
quantity.measured: IC50
Provide a numeric answer, followed by its unit.

CCCc1nnc2c3ccccc3c(NNC(=S)NC3CCCCC3)nn12 | 13.8 µM

Would you kindly share the measured IC50 for CCCc1nnc2c3ccccc3c3nnc(SCC(=O)Nc4ccc([N+](=O)[O-])cc4)n3n12 [Compound 14b] ? 12.6 µM

----------
# System: MCF-7 cells (human breast adenocarcinoma)
# experiment: MTT anti-proliferative assay, MCF-7
# Type: cell-based
# condition.parameters: MTT, mean ± SD of three separate experiments; read-out: In vitro Cytotoxicity IC50 MCF-7
# Description: Anti-proliferative activities of the target compounds were assessed via the standard MTT method[38–40] against three cancer cell lines, namely, hepatocellular carcinoma (HepG-2), colorectal carcinoma (HCT-116), and human breast adenocarcinoma (MCF-7). […] Then, cells were dropped in 96-well plates at a density of 3-8 × 10^3 cells/well and incubated for two days in a 5% CO2 incubator at 37 °C. […] The relative cell viability in percentage was calculated. […]
quantity.measured: IC50 (µM)
Numbers only, in µM.

CCCc1nnc2c3ccccc3c(NNC(=S)NC3CCCCC3)nn12 | 12.5

Now let's try a different one.
May I ask what IC50 has been recorded for CCCc1nnc2c3ccccc3c3nnc(SCC(=O)Nc4ccc([N+](=O)[O-])cc4)n3n12 [Compound 14b] ? 14.9
